Tested System: HLA-A*0203 (human)
Test Protocol: 125I-probe peptide inhibition, purified HLA
Experimental Conditions: remark: other sources report otherwise
Would you kindly list pIC50 for each of these binders?
Answers are plain numbers, as −log10 of the molar value.

Check out these entries, answers already filled in.
{"Binder": "CLLAKTCPV [p53.135L2]", "Readout Value": 7.17}
{"Binder": "YMCNSSCMGGM [p53.236]", "Readout Value": 7.17}
{"Binder": "ILLEDSSGNLV [p53.255L2V11]", "Readout Value": 7.15}

Please go through the list and note pIC50 for each binder.
1. LLPENNVLSPL [p53.25]
2. KLYQGSYGFRV [p53.101L2V11]
3. NLLGRNSFEV [p53.263]
4. ALNKMFCQLA [p53.129 (10-mer)]
5. RMPEAAPPVA [p53.65 (10-mer)]

1: 8.35; 2: 7.62; 3: 5.60; 4: 7.15; 5: 7.89
